Examples of compounds with documented IC50 follow.
Test system: KB
Test: Cytotoxicity activity against human KB cells assessed as reduction in cell viability after 72 hrs by MTT assay
Format: functional, cell-based
Hi! Could you send only the number? It should be in µM, unit omitted.

smiles_repr: CC(=O)[C@H]1C[C@@H](C[C@]23C[C@@H](/C=C/C(C)C)C(C)(C)[C@](CC=C(C)C)(C(=O)C(C(=O)c4ccc(O)c(O)c4)=C2O)C3=O)C1(C)C
assay_system: KB
IC50 / µM: 7.4

Req: // Input: C=C(C)[C@H]1C[C@@H](C[C@]23C[C@@H](/C=C/C(C)C)C(C)(C)[C@@]4(C[C@@H](C(C)(C)O)OC4=C(C(=O)c4ccc(O)c(O)c4)C2=O)C3=O)C1(C)C . Output its IC50 only.
Resp: 5.9

Origin of the recorded values: ChEMBL document CHEMBL4665689
